Recorded values, source the supplement of paper PMC7877785.

Documented self-splicing fitness (ln) across a set of sequences
assay.overview: self-splicing fitness, log relative to wild type (ln ratio); higher = more splicing; Tetrahymena group I intron in knt gene, E. coli kanamycin selection, DiMSum; sequences stand for … in CUCUCU…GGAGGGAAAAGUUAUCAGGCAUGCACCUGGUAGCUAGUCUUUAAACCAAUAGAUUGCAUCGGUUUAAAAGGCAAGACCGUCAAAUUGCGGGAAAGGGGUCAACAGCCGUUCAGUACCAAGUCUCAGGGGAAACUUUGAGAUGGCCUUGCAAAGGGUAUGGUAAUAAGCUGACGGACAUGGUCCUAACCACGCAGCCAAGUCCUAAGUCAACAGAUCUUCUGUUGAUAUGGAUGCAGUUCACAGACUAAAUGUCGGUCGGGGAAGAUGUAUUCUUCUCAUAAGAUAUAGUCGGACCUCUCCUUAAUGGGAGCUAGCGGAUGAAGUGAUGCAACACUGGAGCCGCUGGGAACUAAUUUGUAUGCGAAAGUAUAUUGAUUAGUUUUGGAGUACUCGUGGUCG;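 note: selection with 25 µg/mL kanamycin versus none on LB agar overnight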
condition.notes: 30 °C

# biosequence, self-splicing fitness (ln)
data = [
    ("CAUGAGCAAUAUUACGAUCA", -2.99),
    ("CUUUAGCAAUAUUACGCGCC", -3.07),
    ("UGCAAGCAAUAUUACGUUGG", -2.87),
    ("GUGUAGCAAUAUUACGUGAG", -1.23),
    ("CAGGAGCAAUAUUACGGAGC", -2.2),
    ("AUCUAGCAAUAUUACGACCA", -0.438),
    ("CUCUAGCAAUAUUACGGGUC", -5.03),
    ("UCUAAGCAAUAUUACGGUGG", -1.18),
    ("ACUGAGCAAUAUUACGGUCU", -2.46),
    ("AUCGAGCAAUAUUACGUUUG", -4.29),
    ("GGUAAGCAAUAUUACGUUGC", -3.3),
    ("AUCUAGCAAUAUUACGUGAA", -2.52),
    ("UUCCAGCAAUAUUACGGUUC", -2.81),
    ("GAUAAGCAAUAUUACGCUUG", -2.05),
]

###

Documented self-splicing fitness (ln) across a set of sequences
assay.overview: self-splicing fitness, log relative to wild type (ln ratio); higher = more splicing; Tetrahymena group I intron in knt gene, E. coli kanamycin selection, DiMSum; sequences stand for … in CUCUCU…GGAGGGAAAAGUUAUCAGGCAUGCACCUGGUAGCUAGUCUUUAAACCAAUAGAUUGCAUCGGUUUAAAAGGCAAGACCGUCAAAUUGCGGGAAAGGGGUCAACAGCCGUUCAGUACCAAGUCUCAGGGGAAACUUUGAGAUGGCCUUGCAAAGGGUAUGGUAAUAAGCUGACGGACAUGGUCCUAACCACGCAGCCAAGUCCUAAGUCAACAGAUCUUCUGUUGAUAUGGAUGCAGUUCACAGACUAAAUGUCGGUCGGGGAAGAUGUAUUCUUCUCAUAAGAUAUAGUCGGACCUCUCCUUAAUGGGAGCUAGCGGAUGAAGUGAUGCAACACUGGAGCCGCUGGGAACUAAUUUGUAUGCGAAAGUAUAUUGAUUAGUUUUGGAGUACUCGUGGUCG
condition.notes: 37 °C

# biosequence, self-splicing fitness (ln)
rows = [
    ("AUAAAGCAAUAUUACGUAUU", -1.79),
    ("AGCUAGCAAUAUUACGUACG", -1.21),
    ("AAAGAGCAAUAUUACGAGUU", -1.92),
    ("CAUCAGCAAUAUUACGAGCA", -0.921),
    ("UACCAGCAAUAUUACGCCAA", -0.589),
    ("GAACAGCAAUAUUACGCGCG", -0.265),
    ("AAAGAGCAAUAUUACGAGUA", -2.58),
    ("CAAGAGCAAUAUUACGCAAA", -2.56),
    ("UCUCAGCAAUAUUACGUUAA", -2.26),
    ("CCCCAGCAAUAUUACGCGGC", -3.16),
    ("GGGCAGCAAUAUUACGCACG", -1.16),
    ("AGGGAGCAAUAUUACGUUGU", -2.9),
    ("CGGCAGCAAUAUUACGAUAG", -0.126),
    ("UUACAGCAAUAUUACGUAAC", -3.25),
    ("UCCAAGCAAUAUUACGUCCG", -1.81),
    ("GAAGAGCAAUAUUACGCCGG", -2.5),
    ("ACCCAGCAAUAUUACGUGUU", -0.111),
    ("AAUCAGCAAUAUUACGACAC", -1.46),
    ("UUGCAGCAAUAUUACGCUGA", -1.68),
    ("AAACAGCAAUAUUACGGACA", -1.1),
    ("CAGUAGCAAUAUUACGAUCA", -2.04),
    ("AUACAGCAAUAUUACGUAUC", -2.6),
    ("CUACAGCAAUAUUACGCGCG", -0.796),
    ("GAAGAGCAAUAUUACGAGAU", -2.08),
    ("GCAGAGCAAUAUUACGUUAG", -1.61),
]

###

assay.overview: self-splicing fitness, log relative to wild type (ln ratio); higher = more splicing; Tetrahymena group I intron in knt gene, E. coli kanamycin selection, DiMSum; sequences stand for … in CUCUCU…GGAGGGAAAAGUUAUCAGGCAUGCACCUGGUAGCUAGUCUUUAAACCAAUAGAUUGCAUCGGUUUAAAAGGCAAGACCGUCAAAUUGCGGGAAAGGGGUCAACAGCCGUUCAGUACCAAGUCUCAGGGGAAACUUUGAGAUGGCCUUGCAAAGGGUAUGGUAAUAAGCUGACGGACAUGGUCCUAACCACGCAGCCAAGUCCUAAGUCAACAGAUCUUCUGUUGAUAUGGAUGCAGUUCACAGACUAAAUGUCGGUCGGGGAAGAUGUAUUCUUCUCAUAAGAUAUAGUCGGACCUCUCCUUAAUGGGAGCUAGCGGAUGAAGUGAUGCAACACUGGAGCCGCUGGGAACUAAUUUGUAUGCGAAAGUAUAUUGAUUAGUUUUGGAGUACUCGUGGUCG
condition.notes: 37 °C
// label = label 1 if self-splicing fitness (ln) is not less than -2, otherwise label 0

# biosequence, answer.label
measured = [
    ("UAGCAGCAAUAUUACGUUCC", "label 1"),
    ("UCACAGCAAUAUUACGAUCG", "label 1"),
    ("UUGCAGCAAUAUUACGGCUG", "label 0"),
    ("GGGAAGCAAUAUUACGCCUG", "label 1"),
    ("CCAUAGCAAUAUUACGAUGU", "label 0"),
    ("AACUAGCAAUAUUACGGUCG", "label 1"),
    ("CGGAAGCAAUAUUACGCCAG", "label 1"),
]

###

Documented self-splicing fitness (ln) across a set of sequences
assay.overview: self-splicing fitness, log relative to wild type (ln ratio); higher = more splicing; Tetrahymena group I intron in knt gene, E. coli kanamycin selection, DiMSum; sequences stand for … in CUCUCU…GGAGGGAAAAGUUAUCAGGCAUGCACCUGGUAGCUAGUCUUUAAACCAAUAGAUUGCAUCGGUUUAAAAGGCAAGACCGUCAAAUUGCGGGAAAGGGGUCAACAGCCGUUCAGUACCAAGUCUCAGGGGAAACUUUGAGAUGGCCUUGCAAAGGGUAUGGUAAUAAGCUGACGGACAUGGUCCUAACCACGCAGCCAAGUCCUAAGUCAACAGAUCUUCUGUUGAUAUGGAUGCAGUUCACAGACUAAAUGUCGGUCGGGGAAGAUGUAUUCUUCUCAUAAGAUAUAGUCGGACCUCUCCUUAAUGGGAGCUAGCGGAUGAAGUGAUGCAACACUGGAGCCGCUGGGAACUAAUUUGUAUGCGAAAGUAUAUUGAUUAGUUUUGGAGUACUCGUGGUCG
condition.notes: 37 °C

# biosequence, self-splicing fitness (ln)
measured = [
    ("UCUAAGCAAUAUUACGGAGA", -1.3),
    ("CAUCAGCAAUAUUACGGCCA", -0.947),
    ("ACAUAGCAAUAUUACGGGGG", -2.58),
    ("AUUUAGCAAUAUUACGUACC", -1.04),
    ("CUCUAGCAAUAUUACGCUCG", -1.68),
    ("ACCAAGCAAUAUUACGUUGA", -2.01),
    ("AUCAAGCAAUAUUACGGGAC", -1.11),
    ("GCCGAGCAAUAUUACGGCCU", -1.56),
    ("AGGGAGCAAUAUUACGGUAC", -2.67),
    ("CUUGAGCAAUAUUACGGUAU", -2.65),
    ("AAGGAGCAAUAUUACGACAU", -1.6),
    ("AGCAAGCAAUAUUACGCCAG", -2.65),
    ("AAAGAGCAAUAUUACGCUCG", -0.963),
    ("AUCGAGCAAUAUUACGUUCC", -2.02),
    ("UCCCAGCAAUAUUACGUAGU", -0.458),
    ("UAGCAGCAAUAUUACGAGGC", -3.43),
    ("UUGAAGCAAUAUUACGCUAU", -1.45),
    ("GCUGAGCAAUAUUACGCUCU", -0.769),
    ("CGCGAGCAAUAUUACGGGCU", -1.17),
    ("AAAUAGCAAUAUUACGGAGA", -2.11),
    ("GAGUAGCAAUAUUACGUAUU", -1.79),
    ("UCUGAGCAAUAUUACGUGGC", -1.94),
    ("CAUAAGCAAUAUUACGUUUC", -2.26),
    ("GGGUAGCAAUAUUACGGCGC", -1.14),
    ("UCCCAGCAAUAUUACGCCUC", -1.98),
    ("AUCCAGCAAUAUUACGUCAU", -0.313),
    ("UGGCAGCAAUAUUACGUAUU", -1.27),
    ("UAGGAGCAAUAUUACGCGAG", -0.56),
    ("GAAGAGCAAUAUUACGUUCG", -0.987),
    ("GGCAAGCAAUAUUACGUACU", 0.344),
    ("CGGCAGCAAUAUUACGACUC", -0.759),
    ("AGCCAGCAAUAUUACGCCUA", -1.07),
    ("GGCGAGCAAUAUUACGUGCA", -0.435),
    ("AAUGAGCAAUAUUACGGCUU", -1.19),
    ("UCUUAGCAAUAUUACGUAAG", -0.314),
    ("CCUAAGCAAUAUUACGGUCA", -3.01),
]
